The values you see were collected from patent US20230263914A1.

test system: S180 tumor; test: Biodistribution in tumor-bearing mice; assay type: in vivo; conditions: 120 min, i.v., mice bearing S180 tumor, mean ± SD
Tumor/muscle ratio less than 6 is true (1); Tumor/muscle ratio greater than or equal to 6 is false (0).

Reference set, count: 4
O=C(NC1C(O)OC(CO)C(O)C1O)c1ccc(CC[N+]#[C][99Tc+]([C]#[N+]CCc2ccc(C(=O)NC3C(O)OC(CO)C(O)C3O)cc2)([C]#[N+]CCc2ccc(C(=O)NC3C(O)OC(CO)C(O)C3O)cc2)([C]#[N+]CCc2ccc(C(=O)NC3C(O)OC(CO)C(O)C3O)cc2)([C]#[N+]CCc2ccc(C(=O)NC3C(O)OC(CO)C(O)C3O)cc2)[C]#[N+]CCc2ccc(C(=O)NC3C(O)OC(CO)C(O)C3O)cc2)cc1 (stereo not drawn) [^99mTc-4-CNPeDG] :: false (0)
O=C(NC1C(O)OC(CO)C(O)C1O)c1ccc([N+]#[C][99Tc+]([C]#[N+]c2ccc(C(=O)NC3C(O)OC(CO)C(O)C3O)cc2)([C]#[N+]c2ccc(C(=O)NC3C(O)OC(CO)C(O)C3O)cc2)([C]#[N+]c2ccc(C(=O)NC3C(O)OC(CO)C(O)C3O)cc2)([C]#[N+]c2ccc(C(=O)NC3C(O)OC(CO)C(O)C3O)cc2)[C]#[N+]c2ccc(C(=O)NC3C(O)OC(CO)C(O)C3O)cc2)cc1 (stereo not drawn) [^99mTc-4-CNBzDG] :: true (1)
O=C(NC1C(O)OC(CO)C(O)C1O)c1cccc(C[N+]#[C][99Tc+]([C]#[N+]Cc2cccc(C(=O)NC3C(O)OC(CO)C(O)C3O)c2)([C]#[N+]Cc2cccc(C(=O)NC3C(O)OC(CO)C(O)C3O)c2)([C]#[N+]Cc2cccc(C(=O)NC3C(O)OC(CO)C(O)C3O)c2)([C]#[N+]Cc2cccc(C(=O)NC3C(O)OC(CO)C(O)C3O)c2)[C]#[N+]Cc2cccc(C(=O)NC3C(O)OC(CO)C(O)C3O)c2)c1 (stereo not drawn) [^99mTc-3-CNPEDG] :: false (0)
O=C(Cc1ccc(C[N+]#[C][99Tc+]([C]#[N+]Cc2ccc(CC(=O)NC3C(O)OC(CO)C(O)C3O)cc2)([C]#[N+]Cc2ccc(CC(=O)NC3C(O)OC(CO)C(O)C3O)cc2)([C]#[N+]Cc2ccc(CC(=O)NC3C(O)OC(CO)C(O)C3O)cc2)([C]#[N+]Cc2ccc(CC(=O)NC3C(O)OC(CO)C(O)C3O)cc2)[C]#[N+]Cc2ccc(CC(=O)NC3C(O)OC(CO)C(O)C3O)cc2)cc1)NC1C(O)OC(CO)C(O)C1O (stereo not drawn) [^99mTc-4-CNMBDG] :: false (0)

Attention now turns to another entry.
-- ask Please let me know if O=C(NC1C(O)OC(CO)C(O)C1O)c1ccc(C[N+]#[C][99Tc+]([C]#[N+]Cc2ccc(C(=O)NC3C(O)OC(CO)C(O)C3O)cc2)([C]#[N+]Cc2ccc(C(=O)NC3C(O)OC(CO)C(O)C3O)cc2)([C]#[N+]Cc2ccc(C(=O)NC3C(O)OC(CO)C(O)C3O)cc2)([C]#[N+]Cc2ccc(C(=O)NC3C(O)OC(CO)C(O)C3O)cc2)[C]#[N+]Cc2ccc(C(=O)NC3C(O)OC(CO)C(O)C3O)cc2)cc1 (stereo not drawn) [^99mTc-CNPEDG, reference compound] shows Tumor/muscle ratio below 6.
-- reply true (1)
